system tested: Polyisoprenylated methylated protein methyl esterase (PMPMEase; human carboxylesterase 1, hCE1) (Homo sapiens)
Sequence (P23141 18-567): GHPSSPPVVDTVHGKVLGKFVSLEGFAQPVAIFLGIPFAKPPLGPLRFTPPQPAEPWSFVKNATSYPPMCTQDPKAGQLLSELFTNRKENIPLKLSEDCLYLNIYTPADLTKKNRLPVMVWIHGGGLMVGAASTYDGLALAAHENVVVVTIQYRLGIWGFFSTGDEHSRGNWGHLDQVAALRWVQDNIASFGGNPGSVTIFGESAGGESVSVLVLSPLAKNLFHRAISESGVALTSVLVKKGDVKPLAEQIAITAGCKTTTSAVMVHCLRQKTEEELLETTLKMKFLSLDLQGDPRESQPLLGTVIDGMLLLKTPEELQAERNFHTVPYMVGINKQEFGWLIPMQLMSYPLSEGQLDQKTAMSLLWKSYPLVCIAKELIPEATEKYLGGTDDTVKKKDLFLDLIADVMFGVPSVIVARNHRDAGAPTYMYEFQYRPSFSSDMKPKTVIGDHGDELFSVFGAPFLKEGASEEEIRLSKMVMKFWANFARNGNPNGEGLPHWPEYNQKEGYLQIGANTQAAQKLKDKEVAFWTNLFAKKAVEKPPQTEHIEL
assay overview: HPLC assay of RD-PNB hydrolysis in prostate cancer cell lysates (PC-3 value)
observed property: pIC50
Please express pIC50 as -log10 of the molar concentration.

(Q) Find the recorded pIC50 belonging to CC(C)=CCC/C(C)=C/CC/C(C)=C/CSCCS(=O)(=O)F and report it.
(A) 5.52
